Assay Text: soluble on expression in E. coli; label from the status in PepcDB or PDB records
Measured Property: soluble on expression in E. coli

SAASKLQAFWNHPAGPKTIHFWAPTFKWGISIANVADFAKPPEMISYPQQVVVACSGVIWARWGMVITPINWNLSSVNAAMAVTGVCQLSRKIRHDYFSDEKSATASLEG: soluble
ARSAYSYIREAWKRPKEGQIAELMWHRMQEWRNEPAVVRIERPTRLDRARSLGYKAKQGIIVVRVAIRKGSSRRTRFNKGRRSKRMMVNRITRKKNIQRIAEERANRKFPNLRVLNSYSVGEDGRHKWHEVILIDPDHPAIKSDDQLSWISRTRHRLRTFRGLTSAGRRCRGLRGQGKGSEKVRPSLRVNGAKA: soluble
